molecular target: hOCT2 (Homo sapiens); experiment: 5-HT_FAsTR fluorescence uptake inhibition assay, hOCT2; conditions: corresponding to the pKi
Sequence (O15244 whole entry): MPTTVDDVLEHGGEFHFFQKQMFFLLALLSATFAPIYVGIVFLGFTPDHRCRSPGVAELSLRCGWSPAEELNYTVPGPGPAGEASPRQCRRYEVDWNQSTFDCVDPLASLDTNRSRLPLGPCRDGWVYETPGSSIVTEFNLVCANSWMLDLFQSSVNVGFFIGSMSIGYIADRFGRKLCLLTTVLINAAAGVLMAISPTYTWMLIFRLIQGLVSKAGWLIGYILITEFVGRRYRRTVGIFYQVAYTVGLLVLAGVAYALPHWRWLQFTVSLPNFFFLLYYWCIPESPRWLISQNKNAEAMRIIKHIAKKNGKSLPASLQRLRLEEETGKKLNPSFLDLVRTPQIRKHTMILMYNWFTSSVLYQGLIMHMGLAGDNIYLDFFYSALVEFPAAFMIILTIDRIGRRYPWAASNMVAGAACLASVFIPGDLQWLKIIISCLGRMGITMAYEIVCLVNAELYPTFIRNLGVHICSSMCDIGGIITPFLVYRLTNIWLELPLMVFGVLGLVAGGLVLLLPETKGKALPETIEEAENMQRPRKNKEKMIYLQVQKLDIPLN
valueKind: pKi
Scale: pKi equals -log10([C]), with [C] in mol/L.

Lab note: measured pKi of `C[Se+](C)CCCN1c2ccccc2CCc2ccc(Cl)cc21` was 6.79

###

target: UniProt P31645; assay: 5-HT_FAsTR fluorescence efflux assay
Sequence (P31645 whole entry): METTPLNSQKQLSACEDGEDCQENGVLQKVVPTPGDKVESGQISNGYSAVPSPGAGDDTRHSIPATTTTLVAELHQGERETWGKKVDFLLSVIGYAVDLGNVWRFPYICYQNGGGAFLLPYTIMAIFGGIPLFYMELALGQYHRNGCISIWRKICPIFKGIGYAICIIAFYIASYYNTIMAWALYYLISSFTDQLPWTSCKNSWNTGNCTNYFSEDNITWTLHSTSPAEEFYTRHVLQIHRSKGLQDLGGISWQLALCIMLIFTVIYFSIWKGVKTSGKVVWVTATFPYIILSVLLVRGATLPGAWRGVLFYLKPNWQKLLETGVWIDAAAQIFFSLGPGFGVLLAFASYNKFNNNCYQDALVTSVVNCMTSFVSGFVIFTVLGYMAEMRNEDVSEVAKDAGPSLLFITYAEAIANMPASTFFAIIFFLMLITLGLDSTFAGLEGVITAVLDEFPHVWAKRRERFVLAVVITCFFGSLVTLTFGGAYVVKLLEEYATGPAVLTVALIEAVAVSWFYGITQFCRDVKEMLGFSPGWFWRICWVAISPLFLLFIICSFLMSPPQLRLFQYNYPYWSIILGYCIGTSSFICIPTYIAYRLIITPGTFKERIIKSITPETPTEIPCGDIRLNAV
valueKind: EC50
Could you write the number and then its unit?

Lab note: measured EC50 of CNC(C)Cc1ccc2c(c1)OCO2 (stereo not shown) [MDMA] was 6.22 µM
